Data credit: paper PMC6554663

Experiment: PK analysis in satellite dogs
Format: in vivo, dog
Conditions: male, beagle, dog, whole blood, po, 5 mg/kg, dosed EC1728 5 mg/kg oral qd; male dog; Day 5; detected EC1728; blood
measurement_type: Cmax (ng/mL)
// note: answer is a bare numeric in ng/mL

Requested read-out: Cmax. Entry: O=C(Nc1ccc(OC(F)(F)F)cc1)N[C@H]1CC[C@H](Oc2ccc(C(=O)O)cc2)CC1 [EC1728] 1930

###

Test: PK analysis in satellite dogs
Assay type: in vivo, dog
Settings: female, beagle, dog, whole blood, po, 1 mg/kg, dosed EC3039 1 mg/kg oral qd; female dog; Day 1; detected EC3039; blood
measurement_type: AUC(0-t) (ng·h/mL)
Numeric only. Scale: ng·h/mL

Recorded AUC(0-t) of CN(C(=O)N[C@H]1CC[C@H](Oc2ccc(C(=O)O)cc2)CC1)c1ccc(OC(F)(F)F)cc1 , please. 3940

###

Assay: PK analysis in satellite dogs
Format: in vivo, dog
Settings: beagle, whole blood; dosed EC3039 1 mg/kg oral qd; female dog; Day 5; detected EC3039; blood; read-out: T1/2 (converted)
measurement_type: half-life (h)
Reply numerically in h, unit not repeated.

I would be grateful if you could share the reported half-life for CN(C(=O)N[C@H]1CC[C@H](Oc2ccc(C(=O)O)cc2)CC1)c1ccc(OC(F)(F)F)cc1 . 40

###

Experiment: PK analysis in satellite dogs
Assay type: in vivo, dog
Conditions: male, beagle, dog, whole blood, po, 5 mg/kg, dosed EC1728 5 mg/kg oral qd; male dog; Day 5; detected EC1728; blood
measurement_type: AUC(0-t) (ng·h/mL)
Response body: numeric value in ng·h/mL, unit text excluded.

AUC(0-t) lookup needed for O=C(Nc1ccc(OC(F)(F)F)cc1)N[C@H]1CC[C@H](Oc2ccc(C(=O)O)cc2)CC1 , thanks. 96300

###

Experiment: PK analysis in satellite dogs
Type: in vivo, dog
Details: beagle, whole blood; dosed EC3039 5 mg/kg oral qd; male dog; Day 5; detected EC3039; blood; read-out: T1/2 (converted)
measurement_type: half-life (h)
Express your answer in h, writing the number without its unit.

# half-life lookup, item CN(C(=O)N[C@H]1CC[C@H](Oc2ccc(C(=O)O)cc2)CC1)c1ccc(OC(F)(F)F)cc1 27

###

Assay: PK analysis in satellite dogs
Assay type: in vivo, dog
Details: female, beagle, dog, whole blood, po, 1 mg/kg, dosed EC1728 1 mg/kg oral qd; female dog; Day 5; detected EC1728; blood
measurement_type: Cmax (ng/mL)
Give the number; ng/mL is assumed, so skip it.

Any idea what Cmax was measured for O=C(Nc1ccc(OC(F)(F)F)cc1)N[C@H]1CC[C@H](Oc2ccc(C(=O)O)cc2)CC1 [EC1728] ? 4660

###

Experiment: PK analysis in satellite dogs
Assay type: in vivo, dog
Settings: female, beagle, dog, whole blood, po, 1 mg/kg, dosed EC3039 1 mg/kg oral qd; female dog; Day 5; detected EC3039; blood
measurement_type: Cmax (ng/mL)
Express the result in ng/mL but write the number alone.

Please give the measured Cmax for this molecule: CN(C(=O)N[C@H]1CC[C@H](Oc2ccc(C(=O)O)cc2)CC1)c1ccc(OC(F)(F)F)cc1 17300

###

Assay: PK analysis in satellite dogs
Assay type: in vivo, dog
Conditions: male, beagle, dog, whole blood, po, 1 mg/kg, dosed EC1728 1 mg/kg oral qd; male dog; Day 5; detected EC1728; blood
measurement_type: Cmax (ng/mL)
Just the number please, in ng/mL, no unit attached.

Need Cmax, item O=C(Nc1ccc(OC(F)(F)F)cc1)N[C@H]1CC[C@H](Oc2ccc(C(=O)O)cc2)CC1 1900
